Data provenance is patent US20070179060A1.

- System: Monochoria vaginalis
- test method notes: Herbicidal activity in transplanted paddy rice
- Assay type: in vivo
- conditions used: Pontederia vaginalis, 504 h; paddy water application, 17.5 g ai/ha, after 3 weeks; read-out: % Control MOOVA
reported endpoint: pest or weed control at 17.5 g/ha (%)
Kindly provide the numeric value in % only, without the unit symbol.

Ask | # query: pest or weed control at 17.5 g/ha of entry CCOc1c(Cl)ccc(-c2cc(N)c(Cl)c(C(=O)OC)n2)c1F [Compound 41]
Reply | 100

Ask | # query: pest or weed control at 17.5 g/ha of entry CCCCOC(=O)c1nc(-c2ccc(Br)c(OC)c2F)cc(N)c1Cl [Compound 90]
Reply | 100

Further cases:
Ask | # query: pest or weed control at 17.5 g/ha of entry COC(=O)c1nc(-c2ccc(Cl)c(C(F)F)c2F)cc(N)c1Cl [Compound 4]
Reply | 100

* * *

- Test system: redroot pigweed (Amaranthus retroflexus)
- test method notes: Postemergence herbicidal activity
- Assay type: in vivo
- conditions used: Amaranthus retroflexus, post-emergence, 336 h, post-emergent, 140 g ai/ha, after 14 days; read-out: % Control AMARE
Reported pest or weed control at 140 g/ha by item:
Kindly provide the numeric value in % only, without the unit symbol.

See these solved cases before continuing.
Ask | # query: pest or weed control at 140 g/ha of entry COC(=O)c1nc(-c2c(F)cc(Br)c(OC)c2F)cc(N)c1Cl [Compound 77]
Reply | 100

Ask | # query: pest or weed control at 140 g/ha of entry CCOc1c(Cl)ccc(-c2cc(N)c(Cl)c(C(=O)O)n2)c1F [Compound 102]
Reply | 85

Ask | # query: pest or weed control at 140 g/ha of entry COC(=O)c1nc(-c2ccc(F)c(C)c2F)cc(N)c1Cl [Compound 47]
Reply | 100

Ask | # query: pest or weed control at 140 g/ha of entry Cc1c(Cl)ccc(-c2cc(N)c(Cl)c(C(=O)O)n2)c1F [Compound 99]
Reply | 90

Ask | # query: pest or weed control at 140 g/ha of entry CCN(CC)c1c(Cl)ccc(-c2cc(N)c(Cl)c(C(=O)O)n2)c1F [Compound 116]
Reply | 90

Ask | # query: pest or weed control at 140 g/ha of entry COC(=O)c1nc(-c2ccc(F)c(OC)c2Cl)cc(N)c1Cl [Compound 74]
Reply | 90

Ask | # query: pest or weed control at 140 g/ha of entry Nc1cc(-c2ccc(Cl)c(OCC(F)F)c2F)nc(C(=O)O)c1Cl [Compound 96]
Reply | 100

Ask | # query: pest or weed control at 140 g/ha of entry CCOC(=O)c1nc(-c2ccc(Cl)c(OC)c2F)cc(N)c1Cl [Compound 86]
Reply | 100

Further cases:
Ask | # query: pest or weed control at 140 g/ha of entry COC(=O)c1nc(-c2cc(OC)c(F)cc2F)cc(N)c1Cl [Compound 73]
Reply | 100

Ask | # query: pest or weed control at 140 g/ha of entry CN(C)c1c(Cl)ccc(-c2cc(N)c(Cl)c(C(=O)O)n2)c1Cl [Compound 117]
Reply | 100

* * *

reported endpoint: melting point

See these solved cases before continuing.
Ask | # query: melting point of entry COC(=O)c1nc(-c2ccc(Cl)c(C)c2Cl)cc(NC(C)=O)c1Cl
Reply | 172 to 174 °C

Ask | # query: melting point of entry Cc1c(Cl)ccc(-c2cc(N)c(Cl)c(C(=O)O)n2)c1Cl
Reply | 170 to 172 °C (dec.)

Ask | # query: melting point of entry CN(C)c1c(Cl)cc(F)c(-c2cc(N)c(Cl)c(C(=O)O)n2)c1F
Reply | 171 to 172 °C

Ask | # query: melting point of entry COC(=O)c1nc(-c2ccc(Cl)c(C3CC3)c2F)cc(N)c1Cl
Reply | 135 to 136.5 °C

Ask | # query: melting point of entry CCc1c(Cl)ccc(-c2cc(N)c(Cl)c(C(=O)OC)n2)c1F
Reply | 120 to 122 °C

Further cases:
Ask | # query: melting point of entry Nc1cc(-c2ccc(Cl)c(C(F)F)c2F)nc(C(=O)O)c1Cl
Reply | 182 to 183 °C (dec.)

Ask | # query: melting point of entry Nc1cc(-c2ccc(Cl)c(OC(F)F)c2F)nc(C(=O)O)c1Cl
Reply | 179 °C (dec.)
